- experiment.summary: Clearance in mouse at 1 mg/kg, iv
- Assay type: ADME, organism-based
- Parameters: dose 1 mg/kg, route intravenous
- condition.context: in vivo
Kindly supply the reported clearance values for the records listed here.
Answers are plain numbers, in mL/min/kg.

Please review the following examples before continuing.
CCNC(=O)Nc1ccc(-c2nc3c(c(N4CCOC[C@@H]4C)n2)CCN(c2nc(C)ns2)C3)cc1
22
CCNC(=O)Nc1ccc(-c2nc3c(c(N4CCOCC4)n2)CCN(c2ncccn2)C3)cc1
22
CCNC(=O)Nc1ccc(-c2nc3c(c(N4CCOC[C@@H]4C)n2)CCN(c2ncccn2)C3)cc1
36
CCNC(=O)Nc1ccc(-c2nc3c(c(N4CCOC[C@@H]4C)n2)CCN(c2cccnn2)C3)cc1
44
CCNC(=O)Nc1ccc(-c2nc3c(c(N4CCOC[C@@H]4C)n2)CN(c2ncccn2)CC3)cc1
38

# evaluate next
Given CCNC(=O)Nc1ccc(-c2nc3c(c(N4CCOC[C@@H]4C)n2)CN(c2cnccn2)CC3)cc1 , respond with its clearance.
120
